Entry source: the supplement of paper PMC8960247

System: 621-102 (TSC2-deficient);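 further: immortalized renal angiomyolipoma cells stably carrying empty vector or TSC2, dosed in 384-well plates in DMEM, viability normalized to vehicle-treated wells within each plate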
Assay: relative viability vs DMSO; higher = less cytotoxic
Conditions: 1 µM; serum: 10% FBS; 72 h

| Compound | relative viability (%) |
| --- | --- |
| C[C@]12CC[C@@H]3c4ccc(O)cc4C[C@@H](CCCCCCCCC[S+]([O-])CCCC(F)(F)C(F)(F)F)[C@H]3[C@@H]1CC[C@@H]2O (some centres undefined) | 120 |
| CC[C@@H]1C(=O)N(C)c2cnc(Nc3ccc(C(=O)N[C@H]4CC[C@H](N5CCN(CC6CC6)CC5)CC4)cc3OC)nc2N1C(C)C | 41.9 |
| O=C(NOCC(O)CO)c1cc(Br)c(F)c(F)c1Nc1ccc(I)cc1F (centres undefined) | 100 |
| O=C(c1cc(Cc2n[nH]c(=O)c3ccccc23)ccc1F)N1CCN(C(=O)C2CC2)CC1 | 114 |
